Below, each entry is listed alongside its reported binding signal.
Test system: MalR1 (Bifidobacterium breve UCC2003), ORF:82221dfa
Sequence: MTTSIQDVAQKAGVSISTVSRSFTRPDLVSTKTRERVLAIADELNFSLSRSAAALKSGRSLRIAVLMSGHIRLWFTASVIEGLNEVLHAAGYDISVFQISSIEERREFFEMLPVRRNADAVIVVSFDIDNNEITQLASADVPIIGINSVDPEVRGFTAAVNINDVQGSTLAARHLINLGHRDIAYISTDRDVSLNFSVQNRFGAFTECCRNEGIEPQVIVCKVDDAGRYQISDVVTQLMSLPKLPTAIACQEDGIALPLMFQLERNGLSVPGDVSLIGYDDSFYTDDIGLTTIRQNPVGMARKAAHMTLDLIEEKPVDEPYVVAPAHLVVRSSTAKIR
protocol: EMSA
experimental_context: EMSA: binding buffer stock 80 mM Tris-HCl pH 8.0, 20 mM MgCl2, 2 mM DTT, 4 mM EDTA, 400 mM KCl, 40% glycerol (final dilution not stated); poly(dI-dC) …

[
  {
    "residue_string": "GCTCGCTTTTGCCATGGCAACCTCGCTCATCAACAGTGGATAACAATCCCGCTCAAAAGACAACGTTATCATACCTAAGCGAGCAACATGCACGCCACGCTGTCTATTTAGAAGTGCAACGCCCCTGTTCGTCGGCTAATTCTTGCAGTTCGTCGGTGAATGCCCCGGGCCCCCGGATTCAACTTGTAAGTGCAACGGCTGGTTTCGG (double strand) [malR2 promoter]",
    "binding signal (% bound)": 0
  },
  {
    "residue_string": "CTTCGCCACGTCATACACCGTTGCCCTACGCATGATTCCTACTTTAATCGATTCCGGAGGTCAGCACACGTTCGACCTGAATCTAAAAAAAGTTTTAGTGGCTTTCCTGTCAATCTCGCATGCATACTTCAGGTTACGGGCGCAGCACCCAATAATGGGTACCGCGCCTTAATGACCGCTACACGAGCAGTCTCAGCAACTGGTAAAGCTGCCATAGGCTGCGCACGTTG (double strand) [Bbr_1659 promoter]",
    "binding signal (% bound)": 0
  }
]

====

System: AraQ (Bifidobacterium breve UCC2003), ORF:c628000b
Sequence: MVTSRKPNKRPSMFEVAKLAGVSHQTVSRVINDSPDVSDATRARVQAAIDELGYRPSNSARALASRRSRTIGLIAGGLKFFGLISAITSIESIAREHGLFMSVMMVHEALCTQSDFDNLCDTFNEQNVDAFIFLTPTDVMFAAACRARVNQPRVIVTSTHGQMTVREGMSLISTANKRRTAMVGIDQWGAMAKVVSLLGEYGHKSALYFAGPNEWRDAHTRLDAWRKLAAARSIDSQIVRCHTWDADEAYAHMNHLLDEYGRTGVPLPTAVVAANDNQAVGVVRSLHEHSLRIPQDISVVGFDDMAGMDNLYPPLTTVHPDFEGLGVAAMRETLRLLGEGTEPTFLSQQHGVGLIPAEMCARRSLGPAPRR
protocol: EMSA
experimental_context: EMSA: binding buffer stock 80 mM Tris-HCl pH 8.0, 20 mM MgCl2, 2 mM DTT, 4 mM EDTA, 400 mM KCl, 40% glycerol (final dilution not stated); poly(dI-dC) …
We begin with a simple list: items and their reported binding signal.

[
  {
    "residue_string": "CATACGCCTCTCGCTTTCGTCATTGGGCCGACGTCACTGCCGGCACAAAACCGCGACACATGTATGCGTCTTGGTCAACGCTGAATCGTCTCATCACTGAAATGATTTAACGTTTAATCACTTGCGTGATTCATAATATATCGTTTAATCACAGGGGTCAATCAGCGTGTCGAGAGCGTTAACAATCGCGTCCTAACGCCATTACCAGCACATCAGAAACACAATATGGCACAAAAAAAGACAAAATATTGGCGGCGAAGGACTATTGAGC (double strand) [rbsA1 promoter]",
    "limit_operator": "=",
    "binding signal (% bound)": 0
  },
  {
    "residue_string": "CGACAGCTTCCTTGCCATGCTGGCCCTCCTTTATTTTCCAACCCTCGGTTTTCCGCATTGTGCAATCTGCATTGTTTGCCTTGCGGAATCTTAGGAAATTATTTTCCTAAAATGTTTTCTTGAGATAAGATTATAGGACGCCAACGTCAGTGTCAACACGGCGGGTCGAGGGTCGCACAACCCGGACCGAACGGCCCACAATGGCGACGTAGCAAGGAACAGAACGCTACGCCCTTGTACACTGATACAGAGGAAAACAGGCAGGAGGGGAGACATGAACATCAGGGACATCGCACGC (double strand) [Bbr_1841 promoter]",
    "limit_operator": "<",
    "binding signal (% bound)": 15
  }
]
